The following binders are listed with their measured pEC50 values.
Biological target: T1, Cynomolgus Monkey CCR8 (cynomolgus monkey, UniProt O97665 1-356 (rhesus entry))
T1 construct: also called cyno CCR8; cynoCCR8
T1 sequence (O97665 other isoform, or with tags, fused parts or gaps): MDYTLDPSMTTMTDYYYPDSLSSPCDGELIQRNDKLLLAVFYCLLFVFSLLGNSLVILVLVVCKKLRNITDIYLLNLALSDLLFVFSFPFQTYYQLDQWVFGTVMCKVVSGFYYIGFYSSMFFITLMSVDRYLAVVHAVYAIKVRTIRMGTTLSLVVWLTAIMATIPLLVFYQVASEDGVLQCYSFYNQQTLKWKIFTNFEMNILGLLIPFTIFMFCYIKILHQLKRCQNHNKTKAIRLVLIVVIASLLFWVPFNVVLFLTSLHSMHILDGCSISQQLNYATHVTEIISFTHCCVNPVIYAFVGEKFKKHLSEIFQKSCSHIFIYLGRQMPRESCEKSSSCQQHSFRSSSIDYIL
Test: flow cytometry, 293T-cynoCCR8 cells
Description: Goat anti-human IgG was used as secondary antibody to detect antibody binding to the cell surface. EC50 values for dose-dependent binding to cyno CCR8 were determined by fitting the dose-response data to the four-parameter logistic model with GraphPad Prism.
Scale for pEC50: -log10 of concentration given in mol/L; no unit attached.

Below, each entry is followed by its recorded pEC50 result.
binder	numeric.readout
hu305-4F-2m-AF (antibody, V domains shown) VH: QVQLQESGPGLVKPSQTLSLTCTVSGFSLAVYGVHWVRQPPGKGLEWLGVIWRGGTTDYNPSLKSRLTFSKDSSKSQVSLKLSSVTAADTAVYYCAKNRVTTVVAPNFYAMDYWGQGTLVTVSS VL: DIVMTQSPDSLAVSLGERVTINCKSSQSLLYSGNQKNYLAWYQQKPGQSPKLLIYWASTRKSGVPDRFSGSGSGTDFTLTISSLQAEDVAAYYCQQYYTYPLTFGQGTRLEIK	7.78
hu305-4F-2l-AF (antibody, V domains shown, also called hu305-4F-21-AF; hu305-4F-21) VH: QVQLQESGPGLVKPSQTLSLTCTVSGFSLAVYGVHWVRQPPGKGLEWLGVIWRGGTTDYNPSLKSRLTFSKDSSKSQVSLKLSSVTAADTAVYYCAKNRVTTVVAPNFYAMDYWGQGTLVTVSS VL: DIVMTQSPDSLAVSLGERVTMNCKSSQSLLYSGNQKNYLAWYQQKPGQSPKLLIYWASTRKSGVPDRFSGSGSGTDFTLTISSLQAEDVAAYYCQQYYTYPLTFGQGTRLEIK	7.78
hu305-5W-3a-AF (antibody, V domains shown, also called afucosylated hu305-5W-3a) VH: QVQLKQSGPGLVKPSETLSLTCTVSGFSLAVYGVHWVRQPPGKGLEWLGVIWRGGTTDYNPSLKSRLTFSKDSSKSQVSLKLSSVTAADTAVYYCAKNRVTTVVAPNFYAMDYWGQGTLVTVSS VL: DIVMTQSPDSLAVSLGERATINCKSSQSLLYSGNQKNYLAWYQQKPGQPPKLLIYWASTRKSGVPDRFSGSGSGTDFTLTISSLKAEDVAVYYCQQYYTYPLTFGQGTRLEIK	7.90
Ch305-AF (antibody, V domains shown, human IgG1/kappa; also called afucosylated Ch305) VH: QVQMKQSGPSLVQPSQSLSITCTVSGFSLTSYGVHWVRQSPGKGLEWLGVIWRGGTTDYNAAFMSRLSFTKDSSKSQVFFKLNSLQADDTAIYYCAKNRVTTVVAPNFYAMDYWGQGTSVTVSS VL: DIVMTQSPSSLAVSVGEKVTMSCKSSQSLLYSGNQKNYLAWYQQKPGQSPKLLIYWASTRKSGVPDRLTGSGSGTDFTLTISSVKAEDLAAYYCQQYYTYPLTFGAGTRLEIK	7.83

// switching to the query binder
pEC50 in this record for hu305-5P-3a-AF (antibody, V domains shown) VH: QVQLKQSGPGLVKPSETLSLTCTVSGFSLTSYGVHWVRQPPGKGLEWLGVIWRGGTTDYNPSLKSRVTFSKDSSKNQVSLKLSSVTAADTAVYYCAKNRVTTVVAPNFYAMDYWGQGTLVTVSS VL: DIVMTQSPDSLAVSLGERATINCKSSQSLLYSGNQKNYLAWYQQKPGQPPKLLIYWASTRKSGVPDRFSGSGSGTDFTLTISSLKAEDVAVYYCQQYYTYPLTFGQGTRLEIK : 8.01
